- Assay info: Quantitative High-Throughput drug screen in 47 multiple myeloma cell lines against the NCATS MIPE library collection: OCIMY5_PLB cell viability assay (AID 1918988); note: nearly all actives have a fitted effect of over 65% in size
- Conditions used: OCI-MY5 myeloma viability, ATP luminescence, 48 h; series mostly up to 45.8 µM
- Excerpt: PI: Beverly A. Mock Ph.D. Laboratory of Cancer Biology and Genetics, Center for Cancer Research, National Cancer Institute, National Institute of Health, Bethesda, Maryland […] 5; Detector; 425V; Luminescence; Viewlux PerkinElmer. […] 1. […] Briefly, the corresponding myeloma cell lines were screened in 1,536-well plates with 500 cells, 5-uL per well for inhibition of cell viability (assessed by measuring ATP levels with CellTiterGlo). […]
Results filed as inconclusive are left out. Calls of active or inactive are those of the source. Calls come from the whole dose curve; as a rule, active = well fitted cell-killing curve with a large enough effect; inconclusive = small, poorly fitted or top-dose-only effect, or effect the other way; inactive = no such curve, though single readings can be large or run the other way.
Output constraint: value belongs to y for active, n for inactive

[
  {
    "Molecule": "O=c1[nH]c2ccccc2n1C1CCN(Cc2ccc(-c3[nH]c4cc5ncnc5cc4nc3-c3ccccc3)cc2)CC1",
    "Assigned category": "y"
  },
  {
    "Molecule": "N=c1c2c(-c3ccccc3)c(-c3ccccc3)n(Cc3ccccc3)c2ncn1C1CCC(O)CC1 (stereo not drawn)",
    "Assigned category": "y"
  },
  {
    "Molecule": "COC[C@H]1OC(=O)c2coc3c2[C@@]1(C)C1=C(C3=O)[C@@H]2CC[C@H](O)[C@@]2(C)C[C@@H]1OC(C)=O",
    "Assigned category": "y"
  },
  {
    "Molecule": "COc1cc([C@@H]2c3cc4c(cc3[C@@H](O)C3COC(=O)C32)OCO4)cc(OC)c1O (stereo partly drawn)",
    "Assigned category": "y"
  },
  {
    "Molecule": "C[C@@H]1O[C@@H](O[C@@H]2C=C3CC[C@@H]4[C@@H](CC[C@]5(C)[C@H](c6ccc(=O)oc6)CC[C@@]45O)[C@@]3(C)CC2)[C@H](O)[C@H](O)[C@H]1O",
    "Assigned category": "y"
  }
]

## Input Hey, what did the test say about CCCC[N+]1(C)[C@H]2CC(OC(=O)[C@H](CO)c3ccccc3)C[C@H]1[C@H]1O[C@H]12 (stereo partly drawn) ?
## Output n

## Input Hey, what did the test say about CCN1CCN(C(=O)Cc2ccc(Nc3ncc(F)c(Nc4ccc(C(=O)Nc5ccccc5Cl)cc4)n3)cc2)CC1 ?
## Output y

## Input Hey, what did the test say about COc1cccc2c1[C@]13CCN(CC4CC4)[C@H](C2)[C@]1(OC)CCC(=O)C3 ?
## Output n

----------
- Assay info: qHTS of pediatric cancer cell lines to identify multiple opportunities for drug repurposing: Primary screen for BT-12 cells (AID 1347101); note: nearly all actives have a fitted effect of over 25% in size; note: potency is the fitted concentration of half-maximal effect
- Conditions used: BT-12 viability, CellTiter-Glo luminescence, 48 h; series mostly up to 57.3 µM
Records with an inconclusive call do not appear. Activity calls are given as the source filed them. Calls follow the shape of the dose curve; as a rule, active = well fitted cell-killing curve with a large enough effect; inconclusive = small, poorly fitted or top-dose-only effect; inactive = flat fitted curve, though single readings scatter.
Readout kind: Potency

[
  {
    "Compound": "CCCCOC(=O)c1ccccc1C(=O)OCc1ccccc1",
    "Readout kind": "Potency",
    "Observed": "inactive"
  },
  {
    "Compound": "Nc1ccc(Sc2ccc(N)cc2)cc1",
    "Readout kind": "Potency",
    "Observed": "inactive"
  },
  {
    "Compound": "O=C(O)c1cc(Oc2ccc(C(F)(F)F)cc2Cl)ccc1[N+](=O)[O-]",
    "Readout kind": "Potency",
    "Observed": "inactive"
  },
  {
    "Compound": "C[C@]12CC[C@H]3[C@@H](CCC4=CC(=O)CC[C@@]43C)[C@H]1CC[C@H]2O",
    "Readout kind": "Potency",
    "Observed": "inactive"
  },
  {
    "Compound": "CCCCCC[C@H]1C(=O)O[C@H](C)[C@H](NC(=O)c2cccc(NC=O)c2O)C(=O)O[C@@H](C)[C@@H]1OC(=O)CC(C)C",
    "Readout kind": "Potency",
    "Observed": "0.122 µM (active)"
  },
  {
    "Compound": "O=[N+]([O-])c1cc([N+](=O)[O-])c2ccccc2c1",
    "Readout kind": "Potency",
    "Observed": "inactive"
  },
  {
    "Compound": "C#CC1(O)CCC2C3CCC4=CC(=O)CCC4(C)C3CCC21C (stereo not given)",
    "Readout kind": "Potency",
    "Observed": "inactive"
  },
  {
    "Compound": "N=c1c2c(-c3ccccc3)c(-c3ccccc3)n(Cc3ccccc3)c2ncn1C1CCC(O)CC1 (stereo not given)",
    "Readout kind": "Potency",
    "Observed": "6.85 µM (active)"
  },
  {
    "Compound": "CS(=O)(=O)c1ccc(C(=O)C2C(=O)CCCC2=O)c([N+](=O)[O-])c1",
    "Readout kind": "Potency",
    "Observed": "inactive"
  }
]

## Input Entry O=S(=O)(O)C(F)(F)C(F)(F)C(F)(F)C(F)(F)F : reported Potency = ?
## Output inactive

Where do the numbers come from? From PubChem BioAssay (NCATS).
